These entries and their values trace back to patent US10189839B2.

- TARGET_ENTITY: full length human TPH1 (Homo sapiens, UniProt P17752)
- Construct: To generate the enzyme, full length human TPH1 is cloned into the plasmid pET20b(+); made in house; host or cells: E. coli
- Sequence (P17752 whole entry): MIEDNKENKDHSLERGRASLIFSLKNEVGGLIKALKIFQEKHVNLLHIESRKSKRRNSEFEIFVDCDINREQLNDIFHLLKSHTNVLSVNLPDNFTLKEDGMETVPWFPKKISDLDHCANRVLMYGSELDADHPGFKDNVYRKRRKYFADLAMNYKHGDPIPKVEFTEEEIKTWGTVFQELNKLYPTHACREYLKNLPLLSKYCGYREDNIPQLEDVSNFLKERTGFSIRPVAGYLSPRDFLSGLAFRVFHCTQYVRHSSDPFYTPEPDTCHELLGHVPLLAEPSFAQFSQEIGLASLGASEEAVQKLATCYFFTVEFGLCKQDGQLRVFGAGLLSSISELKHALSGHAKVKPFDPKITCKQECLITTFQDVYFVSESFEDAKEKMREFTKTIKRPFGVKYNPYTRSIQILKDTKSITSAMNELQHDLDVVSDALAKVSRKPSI
- TEST_DESCRIPTION: Biochemical in vitro assay using fluorescence readout (TPH1 enzyme activity)
- CONDITIONS: Table 1, mean where determined several times
pIC50: −log10 of the molar value.

| COMPOUND | pIC50 |
| --- | --- |
| CC(=O)N1CCn2c(nc3c2C(c2ncc(Cl)cc2F)N(C(=O)COc2ccc(N4CCOCC4)nc2Cl)CC3)C1 (stereo not shown) | 8.10 |
| CN(C)C(=O)c1ccc(OCC(=O)N2CCc3nc4n(c3C2c2ccc(C3CC3)cc2F)CCOC4)c(Cl)c1 (stereo not shown) | 7.89 |
| CC(C)(O)c1ccc(C2c3c(nc4n3CCCC4)CCN2C(=O)COc2ccc(NS(C)(=O)=O)nc2Cl)c(F)c1 (stereo not shown) | 6.88 |
| N#Cc1ccc(OCC(=O)N2CCc3nc4n(c3C2c2ccc(C3CC3)cc2F)CCNC4)c(Cl)n1 (stereo not shown) | 6.97 |
| CC(=O)N1CCn2c(nc3c2C(c2ccc(C4CC4)cc2F)N(C(=O)COc2ccc(N4CC(F)(F)C4)nc2Cl)CC3)C1 (stereo not shown) | 8.22 |
| Cc1cnc(C2c3c(nc4n3CCCC4)CCN2C(=O)COc2ccc(C(=O)N(C)C3CC3)nc2Cl)c(F)c1 (stereo not shown) | 6.94 |
| CCc1nc(NS(C)(=O)=O)ccc1OCC(=O)N1CCc2nc3n(c2C1c1ccc(C)c(F)c1F)CCCC3 (stereo not shown) | 8.10 |
